Measured pIC50, listed per entry for reference.
- subjectOfTest: h-e5′NT (Homo sapiens, UniProt P21589)
- Construct: made in house; host or cells: COS-7 cells, transiently transfected; sonicated extract / membrane fraction
- Sequence (P21589 27-574): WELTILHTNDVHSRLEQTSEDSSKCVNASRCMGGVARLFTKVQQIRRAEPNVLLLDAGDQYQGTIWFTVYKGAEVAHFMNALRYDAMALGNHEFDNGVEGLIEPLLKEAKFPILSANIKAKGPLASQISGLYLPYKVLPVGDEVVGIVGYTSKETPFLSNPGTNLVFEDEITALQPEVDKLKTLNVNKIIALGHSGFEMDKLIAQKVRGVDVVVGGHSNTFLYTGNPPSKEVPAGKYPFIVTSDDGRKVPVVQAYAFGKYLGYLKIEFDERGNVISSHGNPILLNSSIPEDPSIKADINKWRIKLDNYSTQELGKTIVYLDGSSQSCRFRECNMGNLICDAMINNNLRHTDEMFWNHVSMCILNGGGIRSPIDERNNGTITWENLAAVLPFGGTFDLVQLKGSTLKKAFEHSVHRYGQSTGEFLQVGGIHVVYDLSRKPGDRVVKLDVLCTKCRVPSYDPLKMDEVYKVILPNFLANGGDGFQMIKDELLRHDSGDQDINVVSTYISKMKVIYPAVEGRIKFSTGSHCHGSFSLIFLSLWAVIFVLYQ
- methodSummary: Ecto-5′-nucleotidase inhibition assay (capillary electrophoresis), human enzyme
- Format: biochemical
- conditionDescription: mean ± s.e.m., n = 3; substrate AMP 500 µM
pIC50: −log10 of the molar value.
assayReadout: pIC50

compound | observedValue
CC(=O)c1sc(N/N=C/c2cc3ccccc3[nH]2)nc1C | 5.21
NS(=O)(=O)O [sulfamic acid, reference compound] | 4.38
CC(=O)c1sc(N/N=C/c2cccnc2)nc1C | 6.49

====

IC50 tested on r-e5′NT (Rattus norvegicus): recorded values

compound | subjectOfTest | IC50
CC(=O)c1sc(N/N=C/c2ccc(N(C)C)cc2)nc1C | r-e5′NT (Rattus norvegicus) | 10.1 µM
NS(=O)(=O)O [sulfamic acid, reference compound] | r-e5′NT (Rattus norvegicus) | 77.3 µM
CC(=O)c1sc(N/N=C/c2cccnc2)nc1C | r-e5′NT (Rattus norvegicus) | 7.81 µM

====

- subjectOfTest: r-e5′NT (Rattus norvegicus, UniProt P21588)
- Construct: made in house; host or cells: COS-7 cells, transiently transfected; sonicated extract / membrane fraction
- Sequence (P21588 29-576): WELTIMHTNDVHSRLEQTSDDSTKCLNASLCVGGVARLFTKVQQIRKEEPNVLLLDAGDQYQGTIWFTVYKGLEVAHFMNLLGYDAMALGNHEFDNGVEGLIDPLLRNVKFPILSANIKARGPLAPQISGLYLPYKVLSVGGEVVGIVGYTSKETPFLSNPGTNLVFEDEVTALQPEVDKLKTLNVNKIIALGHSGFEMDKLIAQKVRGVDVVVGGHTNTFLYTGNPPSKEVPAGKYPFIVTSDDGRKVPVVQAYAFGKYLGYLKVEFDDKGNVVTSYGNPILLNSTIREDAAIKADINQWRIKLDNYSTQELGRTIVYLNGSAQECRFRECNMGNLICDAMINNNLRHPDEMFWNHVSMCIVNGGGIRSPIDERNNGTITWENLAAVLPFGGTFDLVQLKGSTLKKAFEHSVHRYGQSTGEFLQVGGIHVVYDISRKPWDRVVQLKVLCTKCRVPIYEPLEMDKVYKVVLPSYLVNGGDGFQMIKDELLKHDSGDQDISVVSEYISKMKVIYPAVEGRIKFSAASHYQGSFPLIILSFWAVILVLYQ
- methodSummary: Ecto-5′-nucleotidase inhibition assay (capillary electrophoresis), rat enzyme
- Assay type: biochemical
- conditionDescription: compound at 0.1 mM; mean ± s.e.m., n = 3; read-out: r-e5′NT percentage inhibition ± s.e.m.
Parameter inhibition at 100 µM: see the listing below.

structureSmilesString | inhibition at 100 µM / %
CC(=O)c1sc(N/N=C/c2ccc(C)o2)nc1C | 12.3
CC(=O)c1sc(N/N=C/c2ccc[nH]2)nc1C | 10.8
CC(=O)c1sc(N/N=C/c2ccco2)nc1C | 15.3
CC(=O)c1sc(N/N=C/c2cc3ccccc3[nH]2)nc1C | 32.7
